- target of assay: IgE antibodies of the individual allergic patient serum II/17
- test details: EAST inhibition, individual serum II/17
measure name: allergenic potency (Prel) at 50% inhibition (relative to native Phl p 5b)
One number for each entry.

// query allergenic potency (Prel) at 50% inhibition (relative to native Phl p 5b) value for entry recombinant Phl p 5b (wild type) (protein) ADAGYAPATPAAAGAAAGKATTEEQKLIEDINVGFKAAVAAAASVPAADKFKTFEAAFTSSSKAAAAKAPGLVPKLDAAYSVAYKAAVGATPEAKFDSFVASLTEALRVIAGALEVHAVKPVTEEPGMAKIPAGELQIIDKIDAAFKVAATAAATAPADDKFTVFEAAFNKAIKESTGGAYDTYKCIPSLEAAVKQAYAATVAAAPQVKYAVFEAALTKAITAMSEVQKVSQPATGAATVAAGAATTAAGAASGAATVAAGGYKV
0.545
